Experiment: Quantitative High-Throughput drug screen in 47 multiple myeloma cell lines against the NCATS MIPE library collection: KMM1_JCRB cell viability assay (AID 1918960); also: nearly all actives have a fitted effect of over 30% in size
Conditions: KMM1 myeloma viability, CellTiter-Glo ATP luminescence, 48 h; series mostly up to 45.8 µM
Records with an inconclusive call do not appear. Activity calls are given as the source filed them. Calls follow the shape of the dose curve; as a rule, active = well fitted cell-killing curve with a large enough effect; inconclusive = small, poorly fitted or top-dose-only effect, or effect the other way; inactive = no such curve, though single readings can be large or run the other way.
Answer with one of the outcomes y for active, n for inactive

Worked examples, 5 compounds total:
Q: Status in this test for COc1cc2nc(-c3ccc(N4CCN(C)CC4)cc3)nc(NCCN3CCOCC3)c2cc1OC ?
Ans: y

Q: GET /call?item= O=c1c(-c2ccc(O)cc2)coc2cc(O[C@@H]3O[C@H](CO)[C@H](O)[C@H](O)[C@H]3O)ccc12 returns the recorded outcome of this test.
Ans: n

Q: Query: recorded result category for NC1CCC(Nc2nc(Nc3ccc(C(=O)N4CCCCC4)cc3)c3ncn(-c4cccc(F)c4)c3n2)CC1 (centres undefined) in this test
Ans: n

Q: Given CC(C)C(C)C=CC(C)C1CCC2C3=CC=C4CC(O)CCC4(C)C3CCC21C (centres undefined) , state the outcome it received in this test.
Ans: n

Q: Hi, do you know how C[C@]12CC[C@@H]3c4ccc(O)cc4C[C@@H](CCCCCCCCCS(=O)CCCC(F)(F)C(F)(F)F)[C@H]3[C@H]1CC[C@H]2O (some centres undefined) came out in this test?
Ans: n

More entries:
Q: I'd appreciate the recorded outcome for CCC(=O)O[C@]1(C(=O)CO)CC[C@H]2[C@@H]3CCC4=CC(=O)CC[C@]4(C)[C@@H]3CC[C@@]21C from this test.
Ans: n

Q: // outcome(item) with item = COc1cc(NC(=O)c2ccc(-c3ccc(Cl)cc3)o2)cc(OC)c1
Ans: y

Q: Name the outcome recorded for Clc1ccc(COC(Cn2ccnc2)c2ccc(Cl)cc2Cl)cc1 (centres undefined) in the assay.
Ans: y

Q: How did this test come out for O=C1NC(=O)C(=Cc2ccc(-c3ccc(F)cc3)o2)S1 ?
Ans: y

Each recorded value in this set is attributed to PubChem BioAssay (NCATS).
